Parameter growth: see the listing below.
Tested on: HT29 colon
procedure-summary: NCI-60 one-dose screen, 48 h (100 = growth as untreated, 0 = no growth, -100 = all killed)
experimental-setup: 10 µM unless noted
The panel holds about 83,000 compounds, 20% with a hit somewhere; the sample as a whole holds those more often.
The reply should contain only the number, in %.

Answered cases to consult:
compound | value-kind | reported-result
C[C@]12CCC3[C@@H](C[C@@H]4SC(Nc5ccccc5)=N[C@@]45CC(=O)CC[C@]35C)[C@@H]1CCC2=O (stereo partly specified) | growth | -55.6
C[C@]12CC[C@H]3[C@@H](C[C@@H]4SC(Nc5cccc(F)c5)=N[C@@]45CC(=O)CC[C@]35C)[C@@H]1CCC2=O | growth | -3.32
C[C@]12CCc3sc(Nc4ccc(F)cc4F)nc3C1=CC[C@@H]1[C@@H]2CC[C@]2(C)C(=O)CC[C@@H]12 | growth | 30.1

Prompt line: Please indicate growth recorded for CCCn1cc2c3c(cccc31)[C@H]1C[C@@H](C)CN(C)[C@@H]1C2
Response line: 45

Prompt line: Please indicate growth recorded for CCN1C(=O)NC(=O)C(C)(N2C(=O)c3c(F)c(F)c(F)c(F)c3C2=O)C1=O (stereo unspecified)
Response line: 6.44

Prompt line: Please indicate growth recorded for CCCCOCCOP(=O)(OCCOCCCC)OCCOCCCC
Response line: 104

Prompt line: Please indicate growth recorded for CCOC(=O)P(=O)(OCC)OCC
Response line: 102
